Source listed as patent US20080026996A1.

# target_entity: human VPAC1 (Homo sapiens, UniProt P32241)
# Sequence (P32241 31-457): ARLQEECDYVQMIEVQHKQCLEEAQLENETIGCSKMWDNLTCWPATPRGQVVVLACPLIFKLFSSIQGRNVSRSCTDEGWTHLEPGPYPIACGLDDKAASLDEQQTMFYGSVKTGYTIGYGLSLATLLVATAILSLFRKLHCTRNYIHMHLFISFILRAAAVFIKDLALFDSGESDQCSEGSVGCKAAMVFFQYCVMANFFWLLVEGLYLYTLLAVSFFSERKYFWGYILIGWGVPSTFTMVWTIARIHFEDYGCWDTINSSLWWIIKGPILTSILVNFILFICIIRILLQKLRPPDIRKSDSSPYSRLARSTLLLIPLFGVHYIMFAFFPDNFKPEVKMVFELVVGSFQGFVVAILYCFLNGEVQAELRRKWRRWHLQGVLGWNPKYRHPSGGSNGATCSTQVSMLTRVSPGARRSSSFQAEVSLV
# run_description: Filter binding assay, membranes of cells transiently transfected with human VPAC1, 125I-labeled VIP tracer (Table 2)
# Parameters: expressed in transfected cells
# particulars: read-out: Human VPAC1 Receptor Binding
# Method: For this assay, the solutions and equipment include: Presoak solution: 0.5% Polyethyleneamine in Aqua dest. Buffer for flushing filter plates: 25 mM HEPES pH 7.4 Blocking buffer: 25 mM HEPES pH 7.4; 0.2% protease free BSA Assay buffer: 25 mM HEPES pH 7.4; 0.5% protease free BSA Dilution and assay plate: PS-Microplate, U form Filtration Plate Multiscreen FB Opaque Plate; […] Type B Glasfiber filter In order to prepare the filter plates, aspirate the presoak solution by vacuum filtration. […]
pIC50: −log10 of the molar value. Where no end group is shown, it is not given here. [ ]: non-standard residue; d: D form. The star is where a group is joined. Orn = NCCC[C@H](N)C(=O)O; Hexanoyl = CCCCCC(=O)*; Aib = CC(C)(N)C(=O)O

{"columns": ["substance", "target_entity", "qualifier_symbol", "pIC50"],
 "data": [
  ["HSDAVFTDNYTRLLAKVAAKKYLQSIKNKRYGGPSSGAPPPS [Agonist P89]", "human VPAC1 (Homo sapiens, UniProt P32241)", "=", 6.79],
  ["H-HSDAVFTDNYTRLRKQVAARKYLQSIKNKRYGGPSSGAPPPS [Agonist P20]", "human VPAC1 (Homo sapiens, UniProt P32241)", "=", 7.01],
  ["Hexanoyl-HSDAVFTDNYTRLR[Aib]QVAAAKYLQSIKNKRYGGPSSGAPPPS [Agonist P263]", "human VPAC1 (Homo sapiens, UniProt P32241)", "=", 5.57],
  ["Hexanoyl-HSDAVFTDNYTRLRKQVAAKRYLQSIKNKRYGGPSSGAPPPS [Agonist P182]", "human VPAC1 (Homo sapiens, UniProt P32241)", "=", 6.69],
  ["Hexanoyl-HSDAVFTDNYTRLQKQVAA[Aib]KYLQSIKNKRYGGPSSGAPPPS [Agonist P250]", "human VPAC1 (Homo sapiens, UniProt P32241)", "=", 6.07],
  ["Hexanoyl-HSDAVFTDNYTRLRKQVAAKQYLQSIKNKRYGGPSSGAPPPS [Agonist P183]", "human VPAC1 (Homo sapiens, UniProt P32241)", "=", 6.37],
  ["Hexanoyl-HSDAVFTDNYTRLRKQVAAKKYIQSIKNKRYGGPSSGAPPPS [Agonist P233]", "human VPAC1 (Homo sapiens, UniProt P32241)", "=", 6.49],
  ["Hexanoyl-HSDAVFTDNYTRLRKQVAAKKYLQSVKNKRYGGPSSGAPPPS [Agonist P109]", "human VPAC1 (Homo sapiens, UniProt P32241)", "=", 6.56],
  ["Hexanoyl-HSDAVFTDNYTRLR[Aib]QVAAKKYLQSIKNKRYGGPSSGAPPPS [Agonist P168]", "human VPAC1 (Homo sapiens, UniProt P32241)", "=", 6.63],
  ["Hexanoyl-HSDAVFTDNYTRL[Aib]KQLAAK[Aib]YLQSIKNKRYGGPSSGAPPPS [Agonist P241]", "human VPAC1 (Homo sapiens, UniProt P32241)", "<", 5.52],
  ["Ac-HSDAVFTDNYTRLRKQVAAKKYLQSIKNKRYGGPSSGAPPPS [Agonist P33]", "human VPAC1 (Homo sapiens, UniProt P32241)", "=", 6.92],
  ["HSDAVFTDNYTREKEKVAAKKYLQSIKNKRYGGPSSGAPPPS [Agonist P87]", "human VPAC1 (Homo sapiens, UniProt P32241)", "=", 6.20],
  ["Hexanoyl-HSDAVFTDNYTRLLAKLALQKYLQSIKNKRYGGPSSGAPPPC [Agonist P164]", "human VPAC1 (Homo sapiens, UniProt P32241)", "<", 5.52],
  ["Hexanoyl-HSDAVFTDNYTRLFKQVAAKKYLQSIKNKRYGGPSSGAPPPS [Agonist P175]", "human VPAC1 (Homo sapiens, UniProt P32241)", "<", 5.52],
  ["Hexanoyl-HSDAVFTANYTRLRKQVAAKKYLQSIKNKRYGGPSSGAPPPS [Agonist P158]", "human VPAC1 (Homo sapiens, UniProt P32241)", "=", 7.59],
  ["Hexanoyl-HSDAVFTDNYT[Orn]LR[Aib]QVAA[Aib]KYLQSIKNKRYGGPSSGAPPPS [Agonist P344]", "human VPAC1 (Homo sapiens, UniProt P32241)", "<", 5.52],
  ["Hexanoyl-HSDAVFTDNYTRLRKQVAAKKYLQSTKNKRYGGPSSGAPPPS [Agonist P108]", "human VPAC1 (Homo sapiens, UniProt P32241)", "=", 6.48]
]}
